Where these numbers come from: paper PMC10786891

- TGT: T1, EsCas13d, nuclease-dead (Eubacterium siraeum, UniProt B0MS50, R295A;H300A;R849A;H854A)
- T1 sequence: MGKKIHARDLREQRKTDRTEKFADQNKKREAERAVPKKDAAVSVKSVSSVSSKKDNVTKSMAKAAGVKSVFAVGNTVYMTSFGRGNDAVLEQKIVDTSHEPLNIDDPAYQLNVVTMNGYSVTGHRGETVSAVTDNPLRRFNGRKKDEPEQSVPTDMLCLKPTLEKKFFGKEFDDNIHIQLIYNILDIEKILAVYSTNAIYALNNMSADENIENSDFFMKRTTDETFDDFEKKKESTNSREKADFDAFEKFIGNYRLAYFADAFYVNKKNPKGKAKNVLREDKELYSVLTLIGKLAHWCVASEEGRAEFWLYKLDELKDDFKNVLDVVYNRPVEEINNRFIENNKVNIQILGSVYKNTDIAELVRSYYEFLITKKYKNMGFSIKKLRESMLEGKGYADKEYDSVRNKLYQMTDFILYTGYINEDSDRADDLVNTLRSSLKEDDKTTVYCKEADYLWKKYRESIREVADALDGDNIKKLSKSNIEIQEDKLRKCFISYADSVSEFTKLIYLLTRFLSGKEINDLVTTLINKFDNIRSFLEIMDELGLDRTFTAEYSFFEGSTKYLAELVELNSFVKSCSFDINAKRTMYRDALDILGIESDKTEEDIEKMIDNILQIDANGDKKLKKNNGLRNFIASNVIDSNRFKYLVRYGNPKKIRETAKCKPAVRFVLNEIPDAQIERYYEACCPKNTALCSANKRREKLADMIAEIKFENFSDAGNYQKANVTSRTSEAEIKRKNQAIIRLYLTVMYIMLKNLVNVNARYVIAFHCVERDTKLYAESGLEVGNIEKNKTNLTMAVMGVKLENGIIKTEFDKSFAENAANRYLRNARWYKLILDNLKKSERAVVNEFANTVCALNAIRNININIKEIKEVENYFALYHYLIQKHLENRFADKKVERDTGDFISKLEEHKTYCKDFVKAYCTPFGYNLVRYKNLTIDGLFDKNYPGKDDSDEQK
- TEST_NAME: crRNA (strand 1, pre-loaded); Mg2+; 40 mM Tris-HCl pH 7.5, 150 mM NaCl, 6 mM MgCl2, 1 mM DTT, 0.1% Tween-20, 0.2 mg/ml BSA; 25 C; 10 min per concentration, then washed
- EXPERIMENTAL_CONTEXT: tags: His6-TwinStrep-SUMO cleaved; N-terminal SNAP kept (SNAP-Surface 488); label: 3' end held by stalled T7 RNA polymerase
PROPERTY: Kd (nM)

target 1 A1G,U10C (mixed) RNA 1: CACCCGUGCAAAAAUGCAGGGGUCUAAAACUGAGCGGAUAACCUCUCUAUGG RNA 2: GGGAAUGGAUCCACAUCUACGAAUUCGUACCAUAGAGAGGUCAUCCGCUCGCCGAGAUCGGAAGAGCACACGU :: 17.3
target 1 insA 3' of 8,insU 3' of 5 (mixed) RNA 1: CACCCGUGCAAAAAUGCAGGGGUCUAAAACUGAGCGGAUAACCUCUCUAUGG RNA 2: GGGAAUGGAUCCACAUCUACGAAUUCGUACCAUAGAGAGGUUAUACCGUCUCACCGAGAUCGGAAGAGCACACGU :: 22
target 2 MT 5'PFS GGG 3'PFS AAG (mixed) RNA 1: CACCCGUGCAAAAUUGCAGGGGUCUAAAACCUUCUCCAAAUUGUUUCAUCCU RNA 2: GGGAAUGGAUCCACAUCUACGAAUUCGGGAGGAUGAAACAAUUUGGAGAAGAAGAGAUCGGAAGAGCACACGU :: 8.9
target 1 A1U,A18C (mixed) RNA 1: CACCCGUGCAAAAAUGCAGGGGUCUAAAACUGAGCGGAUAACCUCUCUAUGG RNA 2: GGGAAUGGAUCCACAUCUACGAAUUCGUACCAUCGAGAGGUUAUCCGCUCUCCGAGAUCGGAAGAGCACACGU :: 66
